test: MRT (infinity) in Sprague-Dawley rat at 10 mg/kg, IG measured for 2880 mins by LC-MS/MS analysis; assay type: ADME, organism-based; details: in vivo, po
Quantity Measured: MRT inf (h)
Quick reminder: number only, in h, skip the unit.

Bench note: what MRT inf did `CCCc1ccc(C(=O)Nc2cnc3ccccc3c2N2CCN(Cc3ccccc3)CC2)cc1` show?
17.8

----------
test: AUC (0 to t) in Sprague-Dawley rat at 10 mg/kg, iv measured for 2880 mins by LC-MS/MS analysis; assay type: ADME, organism-based; conditions: in vivo
Quantity Measured: AUC(0-t) at 48 h (ng·h/mL)
Quick reminder: number only, in ng·h/mL, skip the unit.

Bench note: what AUC(0-t) at 48 h did `CCCc1ccc(C(=O)Nc2cnc3ccccc3c2N2CCN(Cc3ccccc3)CC2)cc1` show?
6070
